- assay: in vivo
- details: mouse, po, male, 25-35 g
recordedEndpoint: LD50 (mg/kg)
Answer in mg/kg, number only, no unit symbol.

compound: CC(C)N1CCOC(COc2cccc3c2CC=C3)C1 (centres unmarked)
unitSpec: mg/kg
LD50: 650

Please look at the following compound next.
IN: Any idea what LD50 was measured for CCN1CCOC(COc2cccc3c2CC=C3)C1 (centres unmarked) ?
OUT: 700

###

- System: methamphetamine-induced stereotyped behavior
- assay: Potentiation of methamphetamine-induced stereotyped behavior in rats (Experiment 1)
- Format: in vivo, rats (male Wistar strain, aged 6 weeks)
- details: Rattus norvegicus, read-out: minimum effective dose causing statistically significant potentiation of the methamphetamine-induced stereotype
Recorded measurements of minimal effective dose, one per entry
Express the reported value numerically, then name its unit.

compound: CC1=CCc2c(OCC3CN(C(C)C)CCO3)cccc21 (centres unmarked) [Example 12A]
reported: 0.03 mg/kg
//
compound: CCCN1CCOC(COc2cccc3c2CC=C3)C1 (centres unmarked) [Example 6]
reported: 1 mg/kg
//
compound: CC1=CCc2cccc(OCC3CN(C(C)C)CCO3)c21 (centres unmarked) [Example 12B]
reported: 0.3 mg/kg
//
compound: CN(C)CCC=C1c2ccccc2CCc2ccccc21 [Amitriptyline, reference compound]
reported: 10 mg/kg
//
compound: CCCCN1CCOC(COc2cccc3c2CC=C3)C1 (centres unmarked) [Example 2]
reported: 3 mg/kg
//
compound: CCN1CCOC(COc2cccc3c2CC=C3)C1 (centres unmarked) [Example 5, 4-ethyl-2-(7-indenyloxymethyl)morpholine]
reported: 0.3 mg/kg

IN: # query: minimal effective dose | item CC1=CCc2c(OCC3CNCCO3)cccc21 (centres unmarked) [Example 11] | system: methamphetamine-induced stereotyped behavior
OUT: 0.3 mg/kg

IN: Queued: CC(C)N1CCOC(COc2cccc3c2CC=C3)C1 (centres unmarked) [Example 1]
OUT: 0.3 mg/kg
